# Tested on: Cdk6/CyclinD3 (Homo sapiens (Human), UniProt Q00534)
# Sequence (Q00534 whole entry): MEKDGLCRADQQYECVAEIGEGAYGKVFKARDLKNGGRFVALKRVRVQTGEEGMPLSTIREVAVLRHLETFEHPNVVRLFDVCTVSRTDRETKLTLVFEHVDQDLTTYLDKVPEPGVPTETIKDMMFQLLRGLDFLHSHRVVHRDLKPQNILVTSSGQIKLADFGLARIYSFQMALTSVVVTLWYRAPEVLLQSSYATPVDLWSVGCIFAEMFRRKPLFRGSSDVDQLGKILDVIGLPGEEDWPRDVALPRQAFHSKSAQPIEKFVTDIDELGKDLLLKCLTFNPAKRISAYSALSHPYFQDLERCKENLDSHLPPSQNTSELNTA
# Sequence (P30281 whole entry partner): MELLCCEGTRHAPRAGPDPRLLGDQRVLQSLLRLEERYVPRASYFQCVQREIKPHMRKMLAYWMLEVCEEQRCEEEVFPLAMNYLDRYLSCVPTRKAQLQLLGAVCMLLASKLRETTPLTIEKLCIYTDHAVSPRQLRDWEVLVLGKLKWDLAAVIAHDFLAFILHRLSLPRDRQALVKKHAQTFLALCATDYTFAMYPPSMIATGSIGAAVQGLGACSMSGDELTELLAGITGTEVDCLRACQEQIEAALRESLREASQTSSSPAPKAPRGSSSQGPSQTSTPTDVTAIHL
# Protocol details: Cdk6 kinase inhibition assay with recombinant Cdk6/CyclinD3, Rb substrate, [33P]-ATP filter plate
# Measurement conditions: 25 μM ATP, read-out: Cdk 6 IC50
pIC50: −log10 of the molar value.
Parameter: pIC50

>  <Line notation>
O=C(c1cnc(Nc2ncc3c4ccncc4n(C4CCCC4)c3n2)s1)N1CCNCC1

>  <Meas value>
6.95

$$$$
>  <Line notation>
Oc1cc(-c2ccc(Nc3ncc4c5ccncc5n(C5CCCC5)c4n3)nn2)ccn1

>  <Meas value>
7.78

$$$$
>  <Line notation>
OCCC1CCN(c2ccc(Nc3ncc4c5ccnc(F)c5n(C5CCCC5)c4n3)nc2)CC1

>  <Meas value>
8.12

$$$$
>  <Line notation>
O=C1CNCCN1Cc1ccc(Nc2ncc3c4ccncc4n(C4CCCC4)c3n2)nc1

>  <Meas value>
8.57

$$$$
>  <Line notation>
CN(C)C1CCN(c2ccc(Nc3ncc4c5ccncc5n(C5CCC5)c4n3)nc2)CC1

>  <Meas value>
7.80

$$$$
>  <Line notation>
C[C@@H](O)Cn1c2cnccc2c2cnc(Nc3ccc(N4CCC(N(C)C)CC4)cn3)nc21

>  <Meas value>
6.50

$$$$
>  <Line notation>
O=S(=O)(c1ccc(Nc2ncc3c4ccncc4n(C4CCCC4)c3n2)nc1)N1CCNCC1

>  <Meas value>
8.51

$$$$
>  <Line notation>
c1ccc2c(c1)c1cnc(Nc3ccc(N4CCNCC4)cn3)nc1n2C1CCCCC1

>  <Meas value>
8.60

$$$$
>  <Line notation>
OCCCNc1ccc(Nc2ncc3c4ccncc4n(C4CCCC4)c3n2)nn1

>  <Meas value>
7.89

$$$$
>  <Line notation>
C1=CCN(c2ccc(Nc3ncc4c5ccncc5n(C5CCCC5)c4n3)nn2)CC1

>  <Meas value>
7.40

$$$$
>  <Line notation>
c1cc(Nc2ncc3c4sncc4n(C4CCCC4)c3n2)ncc1N1CCNCC1

>  <Meas value>
5.00

$$$$
>  <Line notation>
O=S1(=O)CC=C(c2ccc(Nc3ncc4c5ccnc(F)c5n(C5CCCC5)c4n3)nc2)CC1

>  <Meas value>
7.80

$$$$
>  <Line notation>
c1cc2c3cnc(Nc4ccc(N5CCCC5)nn4)nc3n(C3CCCC3)c2cn1

>  <Meas value>
7.71

$$$$
>  <Line notation>
CC1(C)CCC(n2c3cnccc3c3cnc(Nc4ccc(N5CCNCC5)cn4)nc32)CC1

>  <Meas value>
8.96

$$$$
>  <Line notation>
CC(C)(CO)Cn1c2cnccc2c2cnc(Nc3ccc(N4CCNCC4)cn3)nc21

>  <Meas value>
6.89

$$$$
>  <Line notation>
CC[C@@H](C)n1c2cnccc2c2cnc(Nc3ccc(N4CCC(N(C)C)CC4)nn3)nc21

>  <Meas value>
7.23

$$$$
>  <Line notation>
CCC(C)(C)n1c2cnccc2c2cnc(Nc3ccc(N4CCNCC4)cn3)nc21

>  <Meas value>
7.60

$$$$
